B1: library; a variant is named by its letters at N, in order (parent)
chain: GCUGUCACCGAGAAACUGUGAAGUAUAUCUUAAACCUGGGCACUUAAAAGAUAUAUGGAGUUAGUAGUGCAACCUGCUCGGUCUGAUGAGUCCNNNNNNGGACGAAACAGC

variants of: B1; test: normalized RNA/DNA level without ligand (relative to sTRSVctl = 100) (log10 (% of sTRSVctl)); HEK293T; ligand: cyclic di-GMP (c-di-GMP-II aptamer); higher = less ribozyme self-cleavage, higher mRNA level; conditions: reporter: mCherry (pCS4076), ligand present: no
experimental.readout: normalized RNA/DNA level without ligand (log10)
No unit in the answer, only the number.

Previously resolved entries follow.
AAACUA	1.49
UGAAAA	1.73
GCCCCC	1.78
GGUACA	1.52
GCGCGU	1.59

Qu. Endpoint output: normalized RNA/DNA level without ligand (log10) of AAGCAA . Value?
Ans. 1.56

Qu. Bench note: what normalized RNA/DNA level without ligand (log10) did UACUGA show?
Ans. 1.66

Qu. Consider the variant CAGGAA and give its measured normalized RNA/DNA level without ligand (log10).
Ans. 1.4
